Please provide measured pEC50 for the entries that follow.
- target.entity: Bile acid receptor (Homo sapiens, UniProt Q96RI1)
- method: Agonist activity at human GST-tagged FXR incubated for 1 hrs by alphascreen assay
Give bare numbers, as −log10 of the molar value.

| structure.notation | property | endpoint.value |
| --- | --- | --- |
| O=C(O)c1ccc(N2C(=O)CCc3cc(OCc4c(-c5c(Cl)cccc5Cl)noc4C4CC4)ccc32)nc1 | pEC50 | 7.70 |

Incoming: Can you look up the measured pEC50 of O=C1CCc2cc(OCc3c(-c4c(Cl)cccc4Cl)noc3C3CC3)ccc2N1c1ncc(O)cc1F for me?
Outgoing: 8.05

====

Please provide measured EC50 for the entries that follow.
- target.entity: Bile acid receptor (Homo sapiens)
- Sequence (Q96RI1 whole entry): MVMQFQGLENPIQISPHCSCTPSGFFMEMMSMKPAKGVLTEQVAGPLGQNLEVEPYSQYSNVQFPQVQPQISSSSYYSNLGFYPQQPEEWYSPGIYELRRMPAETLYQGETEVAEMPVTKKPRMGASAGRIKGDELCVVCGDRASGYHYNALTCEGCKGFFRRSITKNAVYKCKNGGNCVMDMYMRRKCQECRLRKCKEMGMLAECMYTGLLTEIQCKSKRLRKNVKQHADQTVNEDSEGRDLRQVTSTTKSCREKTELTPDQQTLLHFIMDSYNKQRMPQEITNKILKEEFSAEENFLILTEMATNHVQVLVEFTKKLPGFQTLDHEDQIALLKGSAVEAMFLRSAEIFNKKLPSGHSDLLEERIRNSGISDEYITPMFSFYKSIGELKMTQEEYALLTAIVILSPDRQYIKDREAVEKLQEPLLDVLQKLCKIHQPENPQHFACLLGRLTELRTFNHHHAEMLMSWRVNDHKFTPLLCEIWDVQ
- method: Agonist activity at FXR (unknown origin) incubated for 180 mins by TR-FRET assay

| molecule | EC50 |
| --- | --- |
| CS(=O)(=O)NC(=O)c1ccc(N2CCC3(CC2)CC(OCc2c(-c4ccccc4OC(F)(F)F)noc2C2CC2)CO3)nc1 (configuration not stated) | 26.9 nM |

// next entry
Incoming: Can you look up the measured EC50 of O=C(O)CNC(=O)c1ccc(N2CCC3(CC2)CC(OCc2c(-c4ccccc4OC(F)(F)F)noc2C2CC2)CO3)nc1 (configuration not stated) for me?
Outgoing: 1.7 nM

====

- target.entity: Bifunctional epoxide hydrolase 2 (Homo sapiens)
- Sequence (P34913 whole entry): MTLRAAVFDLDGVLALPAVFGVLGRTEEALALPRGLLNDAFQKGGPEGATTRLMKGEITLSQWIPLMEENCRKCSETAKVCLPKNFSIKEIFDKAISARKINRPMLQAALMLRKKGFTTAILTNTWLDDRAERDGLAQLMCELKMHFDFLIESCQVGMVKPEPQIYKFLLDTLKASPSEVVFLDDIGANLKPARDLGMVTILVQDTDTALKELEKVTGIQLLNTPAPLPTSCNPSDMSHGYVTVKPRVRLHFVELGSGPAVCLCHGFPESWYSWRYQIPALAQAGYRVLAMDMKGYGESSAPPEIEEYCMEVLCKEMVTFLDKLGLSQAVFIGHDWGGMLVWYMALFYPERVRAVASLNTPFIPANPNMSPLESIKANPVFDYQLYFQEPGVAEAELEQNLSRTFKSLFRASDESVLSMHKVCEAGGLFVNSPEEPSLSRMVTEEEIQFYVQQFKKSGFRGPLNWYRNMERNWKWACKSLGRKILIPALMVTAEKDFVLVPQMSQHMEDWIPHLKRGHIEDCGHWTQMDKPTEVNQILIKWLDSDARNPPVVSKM
- method: Inhibition of sEH (unknown origin)
Please provide measured IC50 for the entries that follow.
One number for each entry, in µM.

| structure.notation | unit.name | IC50 |
| --- | --- | --- |
| COc1cc(C(=O)O)ccc1Cn1ccc2ccc(NC(=O)c3ccc(C(C)(C)C)cc3)cc21 | µM | 1.7 |

// next entry
Incoming: Can you look up the measured IC50 of CC(C)(C)c1ccc(C(=O)Nc2ccc3ccn(Cc4ccc(C(=O)O)cc4)c3c2)cc1 for me?
Outgoing: 2.9

====

Please provide measured EC50 for the entries that follow.
- target.entity: UniProt:Q96RI1
- method: Agonist activity at FXR (unknown origin)
One number for each entry, in nM.

| compound | endpoint.value |
| --- | --- |
| O=C(O)c1cc(F)c2nc(N3[C@@H]4CC[C@H]3C[C@@H](OCc3c(-c5c(Cl)cccc5Cl)noc3C3CC3)C4)sc2c1 | 7.7 |

// next entry
Incoming: Can you look up the measured EC50 of COc1cccc(-c2ccc(NC(=O)C3=C(C(=O)O)CCC3)c(F)c2)c1 [VIDOFLUDIMUS] for me?
Outgoing: 450
